Origin of the recorded values: patent US12421253B2

# TARGET: KRas^G12D (Homo sapiens, UniProt P01116, G12D)
# Construct: […]; biotin (biotinylated); purchased Accelegan Inc
# Sequence (P01116 1-169 isoform P01116-2 G12D): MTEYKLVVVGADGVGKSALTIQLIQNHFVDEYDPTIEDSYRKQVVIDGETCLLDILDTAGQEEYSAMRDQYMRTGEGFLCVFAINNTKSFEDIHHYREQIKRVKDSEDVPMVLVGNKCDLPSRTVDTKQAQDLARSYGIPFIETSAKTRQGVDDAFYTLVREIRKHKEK
# EXPERIMENT: KRas binding assay (TR-FRET displacement of Cy5 labelled tracer)
RECORDED_METRIC: IC50 (nM)

Reference set (10 entries):
CCc1cccc2cccc(N3CCc4c(nc(OCC56CCCN5CCC6)nc4NC4CC(=O)N(c5cnn(C)c5)C4)C3)c12 (centres unmarked) [Example 126]    720
CCc1cccc2cccc(N3CCc4c(nc(OCC56CCCN5CCC6)nc4N(C)Cc4c[nH]nn4)C3)c12 [Example 127]    2040
Cc1cccc2cccc(N3CCc4c(nc(OCC56CCCN5CCC6)nc4N4CC5C(=O)NC(=O)C5C4)C3)c12 (centres unmarked) [Example 80]    121
CCc1cccc2cccc(N3CCc4c(nc(OCC56CCCN5CCC6)nc4NCCNS(N)(=O)=O)C3)c12 [Example 160]    4440
CCc1cccc2cccc(N3CCc4c(nc(OCC56CCCN5CCC6)nc4N4CCCC(P(C)(C)=O)C4)C3)c12 (centres unmarked) [Example 112]    7290
Cc1cc2[nH]ncc2c(N2CCc3c(nc(OCC45CCCN4CCC5)nc3N3CCC[C@@](C)(O)C3)C2)c1C [Example 15]    126
CCc1cccc2cccc(N3CCc4c(nc(OCC56CCCN5CCC6)nc4N4CCCCCC4)C3)c12 [Example 49]    465
CCc1c(F)ccc2cc(O)cc(N3CCc4c(nc(OC[C@@]56CCCN5C[C@H](F)C6)nc4NCc4c[nH]c5ncccc45)C3)c12 [Example 23]    69
CCc1cccc2cccc(N3CCc4c(nc(OCC56CCCN5CCC6)nc4N4Cc5ccnn5CC(O)C4)C3)c12 (centres unmarked) [Example 50]    219
CCc1cccc2cccc(N3CCc4c(nc(OCC56CCCN5CCC6)nc4N4CCCC(c5c[nH]cn5)C4)C3)c12 (centres unmarked) [Example 116]    3300

[a] O=C1NC(=O)C2CN(c3nc(OCC45CCCN4CCC5)nc4c3CCN(c3cccc5cccc(Cl)c35)C4)CC12 (centres unmarked) [Example 79]
[b] CCc1c(F)ccc2cc(O)cc(N3CCc4c(nc(OC[C@@]56CCCN5C[C@H](F)C6)nc4N4CCCc5nn(C(=O)NC(C)C)cc5C4)C3)c12 [Example 195]
// task: argmin of IC50 over [ a , b ] // return label of chosen record
b

* * *

# TARGET: KRas^G12D (Homo sapiens, UniProt P01116, G12D)
# Construct: […]; biotin (biotinylated)
# EXPERIMENT: KRas binding assay (TR-FRET displacement of Cy5 labelled tracer)
RECORDED_METRIC: IC50 (nM)

Some solved cases for reference:
CCc1c(F)ccc2cc(O)cc(N3CCc4c(nc(OC[C@@]56CCCN5C[C@H](F)C6)nc4N4CCCC(n5cccn5)C4)C3)c12 (stereo partly drawn)    11
CCc1cccc2cccc(N3CCc4c(nc(OCC56CCCN5CCC6)nc4N4CCOCC(C)(O)C4)C3)c12 (stereo not drawn)    68
CCc1cccc2cccc(N3CCc4c(nc(OCC56CCCN5CCC6)nc4NCCc4ccno4)C3)c12    8480
CCc1cccc2cccc(N3CCc4c(nc(OCC56CCCN5CCC6)nc4NCc4nc5ncccc5o4)C3)c12    6300
O=C1NC(=O)C2CN(c3nc(OCC45CCCN4CCC5)nc4c3CCN(c3cccc5cccc(Br)c35)C4)CC12 (stereo not drawn)    30
CCc1cccc2cccc(N3CCc4c(nc(OCC56CCCN5CCC6)nc4N4CCCC(c5nnc6n5CCC6)C4)C3)c12 (stereo not drawn)    2230
CCc1cccc2cccc(N3CCc4c(nc(OCC56CCCN5CCC6)nc4N4CCCC(S(=O)(=O)NC)C4)C3)c12 (stereo not drawn)    1030
CCc1cccc2cccc(N3CCc4c(nc(OCC56CCCN5CCC6)nc4N4CCCC(c5cn(C)nn5)C4)C3)c12 (stereo not drawn)    1800

[P] CCc1c(F)ccc2cc(O)cc(N3CCc4c(nc(OC[C@@]56CCCN5C[C@H](F)C6)nc4N4C[C@H]5C[C@@H](O)C[C@H]5C4)C3)c12
[Q] Oc1cc(N2CCc3c(nc(OC[C@@]45CCCN4C[C@H](F)C5)nc3N3CCOCC(n4cccn4)C3)C2)c2c(Cl)c(F)ccc2c1 (stereo partly drawn)
[R] CCc1cccc2cccc(N3CCc4c(nc(OCC56CCCN5CCC6)nc4N4CC(O)C(O)C(O)C4)C3)c12 (stereo not drawn)
[S] CCc1cccc2cccc(N3CCc4c(nc(OCC56CCCN5CCC6)nc4N(C)CC(C)(C)O)C3)c12
[T] CCc1cccc2cccc(N3CCc4c(nc(OCC56CCCN5CCC6)nc4N4CCCC(O)(C(F)F)C4)C3)c12 (stereo not drawn)
Provide the items ranked by increasing IC50. Please list the labels according to the requested order.
Q, P, T, S, R

[1] CCc1cccc2cccc(N3CCc4c(nc(OCC56CCCN5CCC6)nc4N4CCCC(c5nnc(CO)n5C)C4)C3)c12 (stereo not drawn)
[2] CCc1cccc2cccc(N3CCc4c(nc(OCC56CCCN5CCC6)nc4N4CCCC(c5ncn[nH]5)C4)C3)c12 (stereo not drawn)
API: POST /compare with 1 and 2 ; response names the item with higher IC50. // caller expects the label of the chosen entry
1

[A] CCc1cccc2cccc(N3CCc4c(nc(OCC56CCCN5CCC6)nc4N4CCn5ncc(S(C)(=O)=O)c5C4)C3)c12
[B] CCc1cccc2cccc(N3CCc4c(nc(OCC56CCCN5CCC6)nc4Nc4cccnc4)C3)c12
Please let me know which one, A or B , has a lower measured IC50 value. Provide the label of your selected option as the answer.
A
(A: 1260 nM, B: 19100 nM)

* * *

# TARGET: KRas^G12A (Homo sapiens, UniProt P01116, G12A)
# Construct: […]; biotin (biotinylated); purchased Accelegan Inc
# Sequence (P01116 1-169 isoform P01116-2 G12A): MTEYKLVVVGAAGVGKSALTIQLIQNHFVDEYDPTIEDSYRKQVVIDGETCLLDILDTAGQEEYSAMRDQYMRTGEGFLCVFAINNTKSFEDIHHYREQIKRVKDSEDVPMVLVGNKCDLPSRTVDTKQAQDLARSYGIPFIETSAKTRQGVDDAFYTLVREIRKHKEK
# EXPERIMENT: KRas binding assay (TR-FRET displacement of Cy5 labelled tracer)
pIC50: −log10 of the molar value.
RECORDED_METRIC: pIC50

CCc1cccc2cccc(N3CCc4c(nc(OCC56CCCN5CCC6)nc4N4CCCn5nc(N)cc5C4)C3)c12    6.77
CCc1cccc2cccc(N3CCc4c(nc(OCC56CCCN5CCC6)nc4N4CCC(O)C(CO)CC4)C3)c12 (stereo not shown)    7.29
CCc1cccc2cccc(N3CCc4c(nc(OCC56CCCN5CCC6)nc4N4CCCCCC4)C3)c12    6.50
CCc1cccc2cccc(N3CCc4c(nc(OCC56CCCN5CCC6)nc4N4CC(C)CC(CO)C4)C3)c12 (stereo not shown)    5.99
CCc1cccc2cccc(N3CCc4c(nc(OCC56CCCN5CCC6)nc4N4CCCCCCC4)C3)c12    6.12

[a] CCc1cccc2cccc(N3CCc4c(nc(OCC56CCCN5CCC6)nc4N4CC(CO)OC5(CCC5)C4)C3)c12 (stereo not shown)
[b] CCc1cccc2cccc(N3CCc4c(nc(OCC56CCCN5CCC6)nc4N4CCC(OCC(N)=O)CC4)C3)c12
[c] CCc1cccc2cccc(N3CCc4c(nc(OCC56CCCN5CCC6)nc4N4CCCn5nccc5C4)C3)c12
[d] CCc1cccc2cccc(N3CCc4c(nc(OCC56CCCN5CCC6)nc4N4CCCC(N5CCCS5(=O)=O)C4)C3)c12 (stereo not shown)
Rank items: key pIC50, increasing. Rank them, then answer with their labels in that order.
a, c, b, d

[a] CCc1cccc2cccc(N3CCc4c(nc(OCC56CCCN5CCC6)nc4N4CCC(n5ccnn5)CC4)C3)c12
[b] CCc1cccc2cccc(N3CCc4c(nc(OCC56CCCN5CCC6)nc4N4CC(C)CC(C(N)=O)C4)C3)c12 (stereo not shown)
Pick one: a or b . Which has the bigger pIC50 number? Lab note: record the label of whichever item you select.
b
(b: 6.42, a: 5.57)

* * *

# TARGET: KRas^G12D (Homo sapiens, UniProt P01116, G12D)
# Construct: […]; biotin (biotinylated)
# EXPERIMENT: KRas binding assay (TR-FRET displacement of Cy5 labelled tracer)
pIC50: −log10 of the molar value.
RECORDED_METRIC: pIC50

CCc1cccc2cccc(N3CCc4c(nc(OCC56CCCN5CCC6)nc4N4CCCC(CO)CC4)C3)c12 (stereo not drawn)    5.84
CCc1c(F)ccc2cc(O)cc(N3CCc4c(nc(OC[C@@]56CCCN5C[C@H](F)C6)nc4N4C[C@H]5CC[C@@H](O)[C@H]5C4)C3)c12    6.84

[I] CN1CCC[C@H]1COc1nc2c(c(N3CCCC4(CNS(=O)(=O)N4)C3)n1)CCN(c1cccc3cccc(Cl)c13)C2 (stereo partly drawn)
[II] Oc1cc(N2CCc3c(nc(OC[C@@]45CCCN4C[C@H](F)C5)nc3N3CC4CC(O)CC3C4)C2)c2c(Cl)c(F)ccc2c1 (single isomer, unassigned) [Example 76]
[III] CCc1cccc2cccc(N3CCc4c(nc(OCC56CCCN5CCC6)nc4Nc4cnn(CC(N)=O)c4)C3)c12
Arrange items by their pIC50 values in increasing order. # format: label list in the order the request specifies
III, I, II
(III: 4.91, I: 6.87, II: 7.43)
